target_or_test_system: T1, mouse CTGF (antigen of the Biacore assay) (mouse, UniProt P29268 26-348)
T1 construct: also called mouse CTGF protein
T1 sequence (looked up): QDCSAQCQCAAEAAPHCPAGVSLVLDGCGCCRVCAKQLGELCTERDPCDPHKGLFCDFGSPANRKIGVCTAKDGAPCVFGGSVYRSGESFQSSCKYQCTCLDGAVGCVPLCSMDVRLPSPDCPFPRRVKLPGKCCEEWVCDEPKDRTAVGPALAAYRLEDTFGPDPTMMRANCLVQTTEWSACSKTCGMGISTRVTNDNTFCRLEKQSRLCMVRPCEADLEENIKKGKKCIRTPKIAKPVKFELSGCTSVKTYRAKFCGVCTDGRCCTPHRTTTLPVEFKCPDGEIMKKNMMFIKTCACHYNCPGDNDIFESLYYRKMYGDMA
experimental_protocol: Biacore, antibody captured on Protein A, mouse CTGF in flow, 1:1 fit
value_kind: log10 koff (log10 of the value in s⁻¹)
Log scale reminder: koff in s⁻¹, then log10 taken.

Batch lookup, log10 koff per entry.
1. chimeric antibody Ch95 (antibody, human IgG1, kappa, V domains shown) VH: EVLLQQSGPVLVKPGPSVKISCKASGFTFTNYDIHWVKQSHGKSLEWIGLVYPYNGGTAYNQKFKDKATLTFDTSSSTAYMELNSLTSEDSAVYYCARWGLIPGTTSYFDVWGTGTTVTVSS VL: QIVLSQSPPILSASPGEKVTMTCRASSSVSYIHWYQQKPRSSPKPWIYATSNLASGVPARFSGSGSGTSYSLTISRVEAEDAATYYCQQWNSNPWTFGGGTRLEIKR
2. Hu95-51yk (antibody, human IgG1, kappa, V domains shown) VH: EVQLVQSGAEVKKPGASVKVSCRASGFTFTNYAIHWVKQAPGQRLEWMGLVYPYTGGTAYNQKFKDKVTLTFDTSASTAYMELSSLRSEDTAVYYCARWGMIPGTNSYFDVWGQGTTVTVSS VL: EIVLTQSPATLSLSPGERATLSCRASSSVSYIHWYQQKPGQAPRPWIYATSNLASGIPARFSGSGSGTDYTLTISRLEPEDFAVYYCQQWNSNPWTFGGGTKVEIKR

**A:**
1: -1.63; 2: -3.29

Batch lookup, log10 koff per entry.
1. Hu147-23wk (antibody, human IgG1, kappa, V domains shown) VH: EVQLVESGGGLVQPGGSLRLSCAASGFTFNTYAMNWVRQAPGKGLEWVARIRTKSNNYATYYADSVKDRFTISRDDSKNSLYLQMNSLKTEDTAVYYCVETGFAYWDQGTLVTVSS VL: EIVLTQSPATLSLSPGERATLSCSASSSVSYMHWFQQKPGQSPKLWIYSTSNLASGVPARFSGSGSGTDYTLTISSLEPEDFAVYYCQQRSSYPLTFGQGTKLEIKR
2. Hu164-69wl (antibody, human IgG1, lambda, V domains shown) VH: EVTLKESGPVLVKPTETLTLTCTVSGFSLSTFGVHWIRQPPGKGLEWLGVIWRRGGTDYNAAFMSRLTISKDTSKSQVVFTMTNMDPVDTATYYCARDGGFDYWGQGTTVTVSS VL: ESVVTQPPSVSGAPGQRVTISCRSSIGAVTTSNYANWVQQLPGTAFKGLIGGTSNRAPGVPDRFSGSKSGTSASLAITGLQAEDEADYYCALWYSTHYVFGGGTKLTVLG
3. Hu95-31wk (antibody, human IgG1, kappa, V domains shown) VH: EVQLVQSGAEVKKPGASVKVSCKASGFTFTNYDIHWVKQAPGQRLEWMGLVYPYNGGTAYNQKFKDKVTLTFDTSASTAYMELSSLRSEDTAVYYCARWGLIPGTTSYFDVWGQGTTVTVSS VL: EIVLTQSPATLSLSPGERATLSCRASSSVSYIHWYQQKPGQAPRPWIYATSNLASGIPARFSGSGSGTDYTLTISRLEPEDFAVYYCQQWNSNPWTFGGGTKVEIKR

**A:**
1: -0.76; 2: -2.11; 3: -1.65
